Target: STAT3 (Homo sapiens, UniProt P40763)
Sequence (P40763 whole entry): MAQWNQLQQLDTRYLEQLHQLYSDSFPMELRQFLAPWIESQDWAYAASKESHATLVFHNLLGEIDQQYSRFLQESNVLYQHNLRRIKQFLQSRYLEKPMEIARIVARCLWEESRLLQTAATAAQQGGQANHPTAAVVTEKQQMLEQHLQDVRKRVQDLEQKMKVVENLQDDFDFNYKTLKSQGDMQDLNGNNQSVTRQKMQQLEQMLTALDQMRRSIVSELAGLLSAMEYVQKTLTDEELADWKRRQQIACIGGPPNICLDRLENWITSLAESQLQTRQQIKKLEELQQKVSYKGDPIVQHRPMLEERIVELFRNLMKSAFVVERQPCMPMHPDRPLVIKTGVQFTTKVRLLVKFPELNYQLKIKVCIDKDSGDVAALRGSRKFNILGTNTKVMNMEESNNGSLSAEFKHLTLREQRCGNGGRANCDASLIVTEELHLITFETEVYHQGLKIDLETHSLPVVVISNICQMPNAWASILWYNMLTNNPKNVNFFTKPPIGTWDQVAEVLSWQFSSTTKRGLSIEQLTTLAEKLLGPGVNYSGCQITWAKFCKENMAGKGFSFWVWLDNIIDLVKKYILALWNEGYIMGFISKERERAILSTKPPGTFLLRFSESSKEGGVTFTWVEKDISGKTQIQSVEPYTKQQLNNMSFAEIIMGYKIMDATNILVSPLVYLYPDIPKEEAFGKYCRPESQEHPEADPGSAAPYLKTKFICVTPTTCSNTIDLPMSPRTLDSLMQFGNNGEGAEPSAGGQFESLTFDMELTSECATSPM
Assay: Estimated DC50 for STAT3 degradation in MOLM-16 cells (immunoblotting)
Format: cell-based
Set-up: In vitro cultured cells or xenograft tumors were lysed; endogenous in cells; host or cells: MOLM-16
Details: MOLM-16, 4 h; read-out: Estimated DC50 STAT3
Quantity Name: DC50

Q. Returns the measured DC50 for the input compound. Input: CCN1CC[C@H]2CC[C@@H](C(=O)N[C@@H](CCNC(N)=O)C(=O)N[C@@H](Cc3ccc(C(C)(C)C)cc3)C(=O)N3CCC(CCC#Cc4cccc5c4CN(C4CCC(=O)NC4=O)C5=O)CC3)N2C(=O)[C@@H](NC(=O)c2cc3cc(C(F)(F)P(=O)(O)O)ccc3s2)C1 (stereo partly shown)
A. > 1000 nM

Q. Returns the measured DC50 for the input compound. Input: CC(C)N1CC[C@H]2CC[C@@H](C(=O)N[C@@H](CCC(N)=O)C(=O)N[C@@H](Cc3ccc(C(C)(C)C)cc3)C(=O)N3CCC(CCC#Cc4cccc5c4CN(C4CCC(=O)NC4=O)C5=O)CC3)N2C(=O)[C@@H](NC(=O)c2cc3cc(C(F)(F)P(=O)(O)O)ccc3s2)C1 (stereo partly shown)
A. < 250 nM

Q. Returns the measured DC50 for the input compound. Input: CC(=O)N1CC[C@H]2CC[C@@H](C(=O)N[C@@H](CCC(N)=O)C(=O)N[C@@H](Cc3ccc(C(C)(C)C)cc3)C(=O)N3CCC(CCC#Cc4cccc5c4CN(C4CCC(=O)NC4=O)C5=O)CC3)N2C(=O)[C@@H](NC(=O)c2cc3cc(C(F)(F)P(=O)(O)O)ccc3s2)C1 (stereo partly shown)
A. < 250 nM

Q. Returns the measured DC50 for the input compound. Input: NC(=O)CC[C@H](NC(=O)[C@@H]1CC[C@@H]2CCN(C(=O)CCCCCC#Cc3cccc4c3CN(C3CCC(=O)NC3=O)C4=O)C[C@H](NC(=O)c3cc4cc(C(F)(F)P(=O)(O)O)ccc4s3)C(=O)N21)C(=O)NC(Cc1ccccc1)Cc1ccccc1 (stereo partly shown)
A. 200 nM

====

Target: STAT3 (Homo sapiens, UniProt P40763)
Assay: Estimated DC50 for STAT3 degradation in MOLM-16 cells (immunoblotting)
Assay type: cell-based
Parameters: In vitro cultured cells or xenograft tumors were lysed; endogenous in cells; host or cells: MOLM-16
Conditions: MOLM-16, 4 h; read-out: Estimated DC50 STAT3
Description: FIG. 62 is a series of four images showing the fluorescent immunoblotting analysis of STAT1 and STAT3 protein in Molm-16 cells after treatment for 4 h with Cpd. Nos. 331, 296, 361, 362, 363, 364, 365, 366, and 367 at the concentrations indicated. In vitro cultured cells or xenograft tumors were lysed 1× Cell Lysis Buffer (Cell Signaling Technology, #9803), resolved by SDS-PAGE NuPAGE gel (Thermo Fisher Scientific), and transferred to a PVDF membrane (Bio Rad). […]
Quantity Name: DC50

Q. Returns the measured DC50 for the input molecule. Input: CCN1CC[C@H]2CC[C@@H](C(=O)N[C@@H](CCC(N)=O)C(=O)N[C@@H](Cc3ccc(NS(=O)(=O)c4ccc(C)cc4)cc3)C(=O)N3CCC(CCC#Cc4cccc5c4CN(C4CCC(=O)NC4=O)C5=O)CC3)N2C(=O)[C@@H](NC(=O)c2cc3cc(C(F)(F)P(=O)(O)O)ccc3s2)C1 (some centres unmarked)
A. < 250 nM

Q. Returns the measured DC50 for the input molecule. Input: CC(C)(C)c1ccc(C[C@H](NC(=O)[C@H](CCC(N)=O)NC(=O)[C@@H]2CC[C@@H]3CCN(CC(F)F)C[C@H](NC(=O)c4cc5cc(C(F)(F)P(=O)(O)O)ccc5s4)C(=O)N32)C(=O)N2CCC(CCC#Cc3cccc4c3CN(C3CCC(=O)NC3=O)C4=O)CC2)cc1 (some centres unmarked)
A. < 250 nM

Q. Returns the measured DC50 for the input molecule. Input: CCN1CC[C@H]2CC[C@@H](C(=O)N[C@@H](CCC(N)=O)C(=O)N[C@@H](Cc3ccc(NS(=O)(=O)c4ccc(C5CCCCC5)cc4)cc3)C(=O)N3CCC(CCC#Cc4cccc5c4CN(C4CCC(=O)NC4=O)C5=O)CC3)N2C(=O)[C@@H](NC(=O)c2cc3cc(C(F)(F)P(=O)(O)O)ccc3s2)C1 (some centres unmarked)
A. 500 nM

Q. Returns the measured DC50 for the input molecule. Input: COC(=O)N1CC[C@H]2CC[C@@H](C(=O)N[C@@H](CCC(N)=O)C(=O)N[C@@H](Cc3ccc(C(C)(C)C)cc3)C(=O)N3CCC(CCC#Cc4cccc5c4CN(C4CCC(=O)NC4=O)C5=O)CC3)N2C(=O)[C@@H](NC(=O)c2cc3cc(C(F)(F)P(=O)(O)O)ccc3s2)C1 (some centres unmarked)
A. < 250 nM

Q. Returns the measured DC50 for the input molecule. Input: CCN1CC[C@H]2CC[C@@H](C(=O)N[C@@H](CCC(N)=O)C(=O)N[C@@H](Cc3ccc(C(=O)NCC4CCN(C)CC4)cc3)C(=O)N3CCC(CCC#Cc4cccc5c4CN(C4CCC(=O)NC4=O)C5=O)CC3)N2C(=O)[C@@H](NC(=O)c2cc3cc(C(F)(F)P(=O)(O)O)ccc3s2)C1 (some centres unmarked)
A. > 1000 nM
